Tested on: "hot plate" test in mice
Experiment: Analgetic activity on the model "hot plate"
Type: in vivo, white mongrel mice
Settings: 10 mg/kg, 30 minutes post administration
measurement.name: latent time of nociception threshold, M ± m (s)

{"compound": "O=C(CCc1ccc(O)cc1)N[C@@H](Cc1ccc(O)cc1)C(=O)O [Compound XIV, 3-(p-hydroxyphenyl)-propionyltyrosine]", "unit.text": "s", "test.result": 5.59}
{"compound": "COC(=O)C(Cc1ccccc1)NC(=O)Cc1ccc(O)cc1 (stereo not drawn)", "unit.text": "s", "test.result": 4.85}
{"compound": "O=C(CCc1ccc(O)cc1)NCCc1ccc(O)cc1 [Compound X, 3-(p-hydroxyphenyl)-propionyltyramine]", "unit.text": "s", "test.result": 7.54}
{"compound": "CC(=O)N[C@@H](Cc1ccc(O)cc1)C(=O)NCCc1ccccc1", "unit.text": "s", "test.result": 9.2}
{"compound": "O=C(CCc1ccccc1)NCCc1ccccc1", "unit.text": "s", "test.result": 5.35}
{"compound": "COC(=O)[C@H](Cc1ccccc1)NC(=O)CCc1ccc(O)cc1", "unit.text": "s", "test.result": 5.9}
{"compound": "O=C(CCc1ccccc1)N[C@@H](Cc1ccc(O)cc1)C(=O)OCc1ccccc1", "unit.text": "s", "test.result": 6.9}
{"compound": "O=C(Cc1ccc(O)cc1)NC(Cc1ccc(O)cc1)C(=O)O (stereo not drawn) [Compound II, p-hydroxyphenylacetyltyrosine]", "unit.text": "s", "test.result": 6.0}
{"compound": "O=C(CCc1ccc(O)cc1)NCCc1ccccc1", "unit.text": "s", "test.result": 8.4}

Reference source: patent US8309766B2
